# Lookup of reported pIC50 keyed by entry
- Test system: MEL-28
- test protocol: Inhibition of cell growth by counting cells, MEL-28
- Assay type: cell-based, human
- measurement parameters: Homo sapiens, SK-MEL-28, 72 h; three days of incubation; read-out: IC50 (molar) MEL-28
pIC50: −log10 of the molar value.
parameter measured: pIC50

>>> obs_value("CCCCCCCCCCCCCCCC(=O)Oc1cc2c(cc1OC)[C@@]1(CS[C@@H]3c4c(OC(C)=O)c(C)c5c(c4[C@H](COC1=O)N1C3[C@H]3c4c(cc(C)c(OC)c4OC(=O)CCCCCCCCCCCCCCC)C[C@@H]([C@@H]1O)N3C)OCO5)NCC2 (stereo partly drawn)")
7.09
>>> obs_value("CCCC(=O)Oc1cc2c(cc1OC)[C@@]1(CS[C@@H]3c4c(OC(C)=O)c(C)c5c(c4[C@H](COC1=O)N1C3[C@@H]3N[C@@H](Cc4cc(C)c(OC)c(O)c43)[C@@H]1C#N)OCO5)NCC2 (stereo partly drawn)")
9.92
>>> obs_value("C=CCOc1cc2c(cc1OC)[C@@]1(CS[C@@H]3c4c(OC(C)=O)c(C)c5c(c4[C@H](COC1=O)N1C3[C@H]3c4c(cc(C)c(OC)c4OCC=C)C[C@@H]([C@@H]1C#N)N3C)OCO5)NCC2 (stereo partly drawn)")
7.93
>>> obs_value("COc1cc2c(cc1OC(=O)/C=C/c1ccccc1)CCN[C@]21CS[C@@H]2c3c(OC(C)=O)c(C)c4c(c3[C@H](COC1=O)N1C2[C@@H]2N[C@@H](Cc3cc(C)c(OC)c(O)c32)[C@@H]1C#N)OCO4 (stereo partly drawn)")
9.95
>>> obs_value("CCCC(=O)Oc1c(C)c2c(c3c1[C@H]1SC[C@]4(NCCc5cc(OC(=O)OC(C)(C)C)c(OC)cc54)C(=O)OC[C@@H]3N3C1[C@H]1c4c(cc(C)c(OC)c4O)C[C@@H]([C@@H]3C#N)N1C)OCO2 (stereo partly drawn)")
8.95
>>> obs_value("COc1cc2c(cc1O)CCN[C@]21CS[C@@H]2c3c(OC(C)=O)c(C)c4c(c3[C@H](COC1=O)N1C2[C@H]2c3c(cc(C)c(OC)c3OC(C)=O)C[C@@H]([C@@H]1C#N)N2C)OCO4 (stereo partly drawn)")
8.91
>>> obs_value("COc1cc2c(cc1O)CCN[C@]21CS[C@@H]2c3c(OC(=O)/C=C/c4ccccc4)c(C)c4c(c3[C@H](COC1=O)N1C2[C@H]2c3c(cc(C)c(OC)c3O)C[C@@H]([C@@H]1C#N)N2C)OCO4 (stereo partly drawn)")
9.93
>>> obs_value("CCCCCCCC(=O)Oc1cc2c(cc1OC)[C@@]1(CS[C@@H]3c4c(OC(C)=O)c(C)c5c(c4[C@H](COC1=O)N1C3[C@H]3c4c(cc(C)c(OC)c4OC(=O)CCCCCCC)C[C@@H]([C@@H]1C#N)N3C(=O)OC(C)(C)C)OCO5)NCC2 (stereo partly drawn)")
5.04
>>> obs_value("CCCCCCCCCCCCCCCC(=O)Oc1cc2c(cc1OC)[C@@]1(CS[C@@H]3c4c(OC(C)=O)c(C)c5c(c4[C@H](COC1=O)N1C3[C@H]3c4c(cc(C)c(OC)c4OC(=O)CCCCCCCCCCCCCCC)C[C@@H]([C@@H]1C#N)N3C)OCO5)NCC2 (stereo partly drawn)")
7.10
